Measured values drawn from the supplement of paper PMC7877785 for this set.

Assay: self-splicing fitness, log relative to wild type (ln ratio); higher = more splicing; Tetrahymena group I intron in knt gene, E. coli kanamycin selection, DiMSum; sequences stand for … in CUCUCU…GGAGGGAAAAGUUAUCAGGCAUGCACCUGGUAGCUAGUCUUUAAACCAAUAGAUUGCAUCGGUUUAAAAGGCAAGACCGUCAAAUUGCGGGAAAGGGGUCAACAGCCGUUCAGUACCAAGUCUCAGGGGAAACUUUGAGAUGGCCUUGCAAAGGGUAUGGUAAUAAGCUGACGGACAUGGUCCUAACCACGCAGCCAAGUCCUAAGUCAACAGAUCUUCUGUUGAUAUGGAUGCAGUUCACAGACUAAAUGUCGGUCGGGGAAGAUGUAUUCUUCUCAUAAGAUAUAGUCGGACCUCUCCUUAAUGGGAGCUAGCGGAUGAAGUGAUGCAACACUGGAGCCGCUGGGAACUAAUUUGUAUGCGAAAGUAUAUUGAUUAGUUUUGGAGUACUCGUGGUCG;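 further: selection with 25 µg/mL kanamycin versus none on LB agar overnight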
Settings: 30 °C
Reported values of self-splicing fitness (ln) for individual entries

AUCCAGCAAUAUUACGUCCA
-1.22
UCCUAGCAAUAUUACGCAUU
-3.92
GACCAGCAAUAUUACGGCUA
0.142
CGACAGCAAUAUUACGCGUA
-1.75
GGCGAGCAAUAUUACGUUCA
-0.77

Query sequence follows.
**Q:** # query: self-splicing fitness (ln) of entry `AUCGAGCAAUAUUACGUUUU`
**A:** -4.86

----------
Test: self-splicing fitness, log relative to wild type (ln ratio); higher = more splicing; Tetrahymena group I intron in knt gene, E. coli kanamycin selection, DiMSum; sequences stand for … in CUCUCU…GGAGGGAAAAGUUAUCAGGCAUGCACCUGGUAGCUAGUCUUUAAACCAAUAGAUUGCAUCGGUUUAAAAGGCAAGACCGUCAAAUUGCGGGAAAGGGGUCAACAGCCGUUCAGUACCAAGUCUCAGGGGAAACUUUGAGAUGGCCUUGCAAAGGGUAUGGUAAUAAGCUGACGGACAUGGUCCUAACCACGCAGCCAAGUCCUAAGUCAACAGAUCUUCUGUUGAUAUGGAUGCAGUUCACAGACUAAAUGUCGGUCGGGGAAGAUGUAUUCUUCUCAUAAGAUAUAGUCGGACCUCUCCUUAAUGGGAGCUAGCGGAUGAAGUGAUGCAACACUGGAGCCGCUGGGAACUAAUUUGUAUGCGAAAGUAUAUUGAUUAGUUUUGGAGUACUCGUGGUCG
Conditions: 37 °C
Would you please tag the item Met when its self-splicing fitness (ln) is -0.8 or above, and Not met when it is below?

Example entries begin here.
UUAAAGCAAUAUUACGCGCU
Met
AGUUAGCAAUAUUACGUCUG
Not met
GAAAAGCAAUAUUACGGCCA
Met
UCACAGCAAUAUUACGCUAG
Not met
GCACAGCAAUAUUACGAUAA
Not met

**Q:** Would you say `GGGAAGCAAUAUUACGUUCG` shows self-splicing fitness (ln) at minimum -0.8?
**A:** Met

**Q:** Quick check, self-splicing fitness (ln) >= -0.8? `AAAGAGCAAUAUUACGAGCA`
**A:** Not met

----------
Assay: self-splicing fitness, log relative to wild type (ln ratio); higher = more splicing; Tetrahymena group I intron in knt gene, E. coli kanamycin selection, DiMSum; sequences stand for … in CUCUCU…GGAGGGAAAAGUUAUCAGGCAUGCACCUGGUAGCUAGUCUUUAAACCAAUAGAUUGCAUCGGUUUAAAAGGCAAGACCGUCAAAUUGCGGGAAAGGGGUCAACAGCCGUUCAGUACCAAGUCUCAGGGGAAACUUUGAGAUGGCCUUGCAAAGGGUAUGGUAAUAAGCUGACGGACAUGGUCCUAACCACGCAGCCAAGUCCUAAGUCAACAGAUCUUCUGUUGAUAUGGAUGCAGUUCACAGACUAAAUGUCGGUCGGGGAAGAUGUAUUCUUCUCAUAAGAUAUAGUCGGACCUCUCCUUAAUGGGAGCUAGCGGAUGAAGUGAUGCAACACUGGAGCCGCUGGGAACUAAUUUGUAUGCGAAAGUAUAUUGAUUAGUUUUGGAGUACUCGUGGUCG
Details: 37 °C
RESULT_TYPE: self-splicing fitness (ln)
Hey, just send me the number, nothing else.

Reference set (6 entries):
AAAGAGCAAUAUUACGUCAC
-2.76
GAUAAGCAAUAUUACGGUGC
-2.17
AUGUAGCAAUAUUACGUACU
-0.16
GUAGAGCAAUAUUACGAUGA
-0.479
GACCAGCAAUAUUACGGCUA
0.0036
UUCUAGCAAUAUUACGCUUU
-1.82

**Q:** For the sequence `CCAUAGCAAUAUUACGGACU` , what self-splicing fitness (ln) is on record?
**A:** -1.85

**Q:** Item under review: `AGAUAGCAAUAUUACGUAUA` . Reported self-splicing fitness (ln)?
**A:** -2.27

**Q:** Could you share which self-splicing fitness (ln) value was measured for `CGAGAGCAAUAUUACGCGUC` ?
**A:** -2.64

**Q:** Would you kindly share the measured self-splicing fitness (ln) for `GGAGAGCAAUAUUACGCAUC` ?
**A:** -2.85

**Q:** # input sequence: `ACGUAGCAAUAUUACGACGU` ; wanted: its self-splicing fitness (ln)
**A:** -2.31

**Q:** Give the measured self-splicing fitness (ln) of `ACAUAGCAAUAUUACGACGA` .
**A:** -0.294

**Q:** Any idea what self-splicing fitness (ln) was measured for `ACCAAGCAAUAUUACGUAAA` ?
**A:** -1.38

**Q:** self-splicing fitness (ln) lookup needed for `UGGCAGCAAUAUUACGAAAC` , thanks.
**A:** -1.52

**Q:** Find the recorded self-splicing fitness (ln) belonging to `GUGUAGCAAUAUUACGUAAG` and report it.
**A:** -1.57

**Q:** # lookup: self-splicing fitness (ln) of `GCUGAGCAAUAUUACGACUG`
**A:** -0.83

**Q:** Find the recorded self-splicing fitness (ln) belonging to `GCUUAGCAAUAUUACGCGAC` and report it.
**A:** -1.73

**Q:** If you can, please state the reported self-splicing fitness (ln) value of `ACUUAGCAAUAUUACGACCU` .
**A:** -0.219

**Q:** Record request: self-splicing fitness (ln) value, item `ACUCAGCAAUAUUACGUGUG`
**A:** -1.3

**Q:** Recorded self-splicing fitness (ln) of `CUAGAGCAAUAUUACGGGUC` , please.
**A:** -3.61

**Q:** Entry `GCCGAGCAAUAUUACGAAGA` has what self-splicing fitness (ln)?
**A:** -2.03

**Q:** Record request: self-splicing fitness (ln) value, item `GCAAAGCAAUAUUACGCACC`
**A:** -1.45

**Q:** Requested field: self-splicing fitness (ln). Item: `GGCCAGCAAUAUUACGGGGC`
**A:** -4.33
